inhibition at 10 µM for assorted compounds
molecular target: human GPR84 receptor (Homo sapiens, UniProt Q9NQS5); construct: host or cells: HEK293 cells, transient transfection; experiment: Gαi biosensor BRET assay in transfected HEK293 cells (antagonism of GPR84 agonist ZQ-16); type: cell-based; details: HEK293, single concentration, code F = 10 μM, 200 nmol/L ZQ-16
Sequence (Q9NQS5 whole entry): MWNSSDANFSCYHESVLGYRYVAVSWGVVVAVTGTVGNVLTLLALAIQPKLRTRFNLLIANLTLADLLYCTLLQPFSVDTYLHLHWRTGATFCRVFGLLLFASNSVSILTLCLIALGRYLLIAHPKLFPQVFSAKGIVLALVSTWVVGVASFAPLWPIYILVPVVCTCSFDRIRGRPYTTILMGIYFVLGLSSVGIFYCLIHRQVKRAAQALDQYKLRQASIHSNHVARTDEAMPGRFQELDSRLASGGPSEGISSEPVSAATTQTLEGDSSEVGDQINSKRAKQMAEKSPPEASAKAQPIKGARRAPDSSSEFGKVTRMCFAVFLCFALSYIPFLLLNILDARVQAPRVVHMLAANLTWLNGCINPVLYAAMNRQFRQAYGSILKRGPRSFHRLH

[
  {
    "record.smiles": "Cc1cc(C#CC2CC2)ccc1CN(C)c1cn(CC2OCC3(CC3)CO2)nn1",
    "measurement.name": "inhibition at 10 µM",
    "result": "> 75%"
  },
  {
    "record.smiles": "Cc1ccc(C#CC2CC2)c2c1N(C(=O)c1cn(CC3OCC4(CC4)CO3)nn1)CCC2",
    "measurement.name": "inhibition at 10 µM",
    "result": "> 75%"
  },
  {
    "record.smiles": "CN(C(=O)c1cn(CC2OCC3(CC3)CO2)nn1)c1cc(C#CC2CC2)ccc1F",
    "measurement.name": "inhibition at 10 µM",
    "result": "> 75%"
  },
  {
    "record.smiles": "Cc1cc(C#CC2CC2)ccc1N(C)C(=O)c1cnn(CC2OCC3(CC3)CO2)c1",
    "measurement.name": "inhibition at 10 µM",
    "result": "> 75%"
  },
  {
    "record.smiles": "Cc1cc(C#CC2CC2)ccc1NC(=O)c1cn(CC2OCC3(CC3)CO2)nn1",
    "measurement.name": "inhibition at 10 µM",
    "result": "≤ 25%"
  }
]

Print human GPR84 receptor (Homo sapiens, UniProt Q9NQS5) inhibition at 10 µM for Cc1cc(C#CC2CC2)ccc1C(=O)N(C)c1cn(CC2OCC3(CC3)CO2)nn1 .
50 to 75%

Print human GPR84 receptor (Homo sapiens, UniProt Q9NQS5) inhibition at 10 µM for Cc1ccc(N(C)C(=O)c2cn(CC3OCC4(CC4)CO3)nn2)nc1C#CC1CC1 .
≤ 25%

Print human GPR84 receptor (Homo sapiens, UniProt Q9NQS5) inhibition at 10 µM for Cc1ccc(C#CC2CC2)cc1C(=O)N(C)c1cn(CC2OCC3(CC3)CO2)nn1 .
≤ 25%

Print human GPR84 receptor (Homo sapiens, UniProt Q9NQS5) inhibition at 10 µM for Cc1ccc(C#CC2CC2)cc1N(C)S(=O)(=O)c1cn(CC2OCC3(CC3)CO2)nn1 .
> 75%

Print human GPR84 receptor (Homo sapiens, UniProt Q9NQS5) inhibition at 10 µM for Cc1ccc(C#CC2CC2)cc1NC(=O)c1cn(CC2OCC3(CC3)CO2)nn1 .
≤ 25%

Print human GPR84 receptor (Homo sapiens, UniProt Q9NQS5) inhibition at 10 µM for Cc1ccccc1NC(=O)c1cn(CC2OCC3(CC3)CO2)nn1 .
≤ 25%

Print human GPR84 receptor (Homo sapiens, UniProt Q9NQS5) inhibition at 10 µM for CN(C(=O)c1cn(CC2OCC3(CC3)CO2)nn1)c1cc(C#CC2CC2)ccc1Br .
> 75%

Print human GPR84 receptor (Homo sapiens, UniProt Q9NQS5) inhibition at 10 µM for Cc1ccccc1N(C)C(=O)c1cn(CC2OCC3(CC3)CO2)nn1 .
≤ 25%

Print human GPR84 receptor (Homo sapiens, UniProt Q9NQS5) inhibition at 10 µM for O=C(Nc1cc(C#CC2CC2)ccc1C1CC1)c1cn(CC2OCC3(CC3)CO2)nn1 .
≤ 25%

Print human GPR84 receptor (Homo sapiens, UniProt Q9NQS5) inhibition at 10 µM for Cc1cc(C#CC2CC2)cnc1CN(C)c1cn(CC2OCC3(CC3)CO2)nn1 .
> 75%

Print human GPR84 receptor (Homo sapiens, UniProt Q9NQS5) inhibition at 10 µM for Cc1cc(C#CC2CC2)ccc1N(C)C(=O)c1cn(CC2OCC3(CC3)CO2)nn1 .
> 75%

Print human GPR84 receptor (Homo sapiens, UniProt Q9NQS5) inhibition at 10 µM for Cc1cc(C#CC2CC2)cc(C)c1N(C)C(=O)c1cn(CC2OCC3(CC3)CO2)nn1 .
> 75%

----------
molecular target: human GPR84 receptor (Homo sapiens); construct: host or cells: HEK293 cells, transient transfection; assay: Gαi biosensor BRET assay in transfected HEK293 cells (antagonism of GPR84 agonist ZQ-16); type: cell-based; conditions: HEK293, single concentration, code F = 10 μM, 200 nmol/L ZQ-16
measurement.name: inhibition at 10 µM

[
  {
    "compound": "Cc1ccc(C#CC2CC2)c(F)c1N(C)C(=O)c1cn(CC2OCC3(CC3)CO2)nn1 [Compound I-37]",
    "measurement.name": "inhibition at 10 µM",
    "result": "> 75%"
  }
]

# return recorded inhibition at 10 µM for entry Cc1cc(OCC(=O)N(C)C)ccc1C(=O)N(C)c1cc(C#CC2CC2)ccc1C [Compound I-27]
≤ 25%

# return recorded inhibition at 10 µM for entry Cc1cc(C#CC2CC2)ccc1OC(=O)c1cn(CC2OCC3(CC3)CO2)nn1 [Compound I-46]
25 to 50%

# return recorded inhibition at 10 µM for entry Cc1cc(C#CC2CC2)ccc1N(C)Cc1cn(CC2OCC3(CC3)CO2)nn1 [Compound I-40]
> 75%

# return recorded inhibition at 10 µM for entry COc1cc(C#CC2CC2)cc(N(C)C(=O)c2cn(CC3OCC4(CC4)CO3)nn2)c1 [Compound I-99]
25 to 50%

# return recorded inhibition at 10 µM for entry Cc1cc(C#CC2CC2)ccc1NCc1cn(CC2OCC3(CC3)CO2)nn1 [Compound I-39]
25 to 50%

# return recorded inhibition at 10 µM for entry Cc1ccc(C#CC2CC2)cc1N(C)C(=O)c1c(C)cc(OCC(=O)N(C)C)cc1C [Compound I-35]
25 to 50%

# return recorded inhibition at 10 µM for entry Cc1ccc(C#CC2CC2)nc1N(C)C(=O)c1cn(CC2OCC3(CC3)CO2)nn1 [Compound I-36]
25 to 50%

----------
target: UniProt Q9NQS5; assay: Gαi biosensor BRET assay in transfected HEK293 cells (antagonism of GPR84 agonist ZQ-16); conditions: 200 nmol/L ZQ-16
IC50 for assorted molecules

// below: answered molecules
[
  {
    "molecule": "Cc1cc(C#CC2CC2)cnc1CN(C)c1cn(CC2OCC3(CC3)CO2)nn1 [Compound I-5]",
    "result": "0.3 to 1 µM"
  },
  {
    "molecule": "O=C(c1cn(CC2OCC3(CC3)CO2)nn1)N(c1ccc(C#CC2CC2)cc1Br)C1CC1 [Compound I-93]",
    "result": "≤ 0.3 µM"
  },
  {
    "molecule": "CN(C(=O)c1cn(CC2OCC3(CC3)CO2)nn1)c1cc(C#CC2CC2)ccc1F [Compound I-31]",
    "result": "1 to 3 µM"
  },
  {
    "molecule": "CN(C(=O)c1cn(CC2OCC3(CC3)CO2)nn1)c1ccc(C#CC2CC2)cc1F [Compound I-29]",
    "result": "≤ 0.3 µM"
  }
]

# return recorded IC50 for entry Cc1ccc(C#CC2CC2)cc1N(C)C(=O)c1cn(CC2OCC3(CC3)CO2)nn1 [Compound I-17]
≤ 0.3 µM

# return recorded IC50 for entry Cc1cc(C#CC2CC2)ccc1N(C)C(=O)c1cn(CC2OCC3(CC3)CO2)nn1 [Compound I-21]
≤ 0.3 µM

# return recorded IC50 for entry Cc1cc(F)c(C#CC2CC2)cc1N(C)C(=O)c1cn(CC2OCC3(CC3)CO2)nn1 [Compound I-100]
≤ 0.3 µM

# return recorded IC50 for entry Cc1cc(C#CC2CC2)ccc1N(C(=O)c1cn(CC2OCC3(CC3)CO2)nn1)C1CC1 [Compound I-83]
≤ 0.3 µM

----------
inhibition at 2 µM for assorted compounds
Biological target: human GPR84 receptor (Homo sapiens)
Construct: host or cells: HEK293 cells, transient transfection
Assay: Gαi biosensor BRET assay in transfected HEK293 cells (antagonism of GPR84 agonist ZQ-16)
Assay type: cell-based
Details: HEK293, single concentration, code A = 2 μM, 200 nmol/L ZQ-16
Procedure: Background—The following assays can be used for determination of GPR84 activation in living HEK293 cells. […] Bioluminescence Resonance Energy Transfer (BRET) Measurement—HEK293 cells were transfected with GPR84-Rluc8 and rGFP-FYVE for the EEs trafficking biosensor or with GPR84, Gαi2-Rluc8, GFP10-Gγ2, and Gβ1 for the Gαi biosensor. […] The BRET signal was calculated as the ratio of light emitted by acceptor (GFP10, rGFP) over the light emitted by donor (Rluc8). […]

[
  {
    "compound": "O=C(c1cn(CC2OCC3(CC3)CO2)nn1)N1CCc2c(C#CC3CC3)cccc21 [Compound I-25]",
    "inhibition at 2 µM": "≤ 25%"
  },
  {
    "compound": "CN(C(=O)c1cn(CC2OCC3(CC3)CO2)nn1)c1c(F)cc(C#CC2CC2)cc1F [Compound I-43]",
    "inhibition at 2 µM": "> 75%"
  },
  {
    "compound": "CN(C(=O)c1cn(CC2OCC3(CC3)CO2)nn1)c1ccc(C#CC2CC2)cc1F [Compound I-29]",
    "inhibition at 2 µM": "> 75%"
  },
  {
    "compound": "Cc1ccc(C#CC2CC2)cc1N(C)C(=O)c1cn(CC2OCC3(CC3)CO2)nn1 [Compound I-17]",
    "inhibition at 2 µM": "> 75%"
  },
  {
    "compound": "CN(C(=O)c1cn(CC2OCC3(CC3)CO2)nn1)c1ccc(C#CC2CC2)cc1Br [Compound I-38]",
    "inhibition at 2 µM": "> 75%"
  },
  {
    "compound": "Cc1cc(C#CC2CC2)c2c(c1)CCC2N(C)c1cn(CC2OCC3(CC3)CO2)nn1 (centres unmarked) [Compound I-81]",
    "inhibition at 2 µM": "≤ 25%"
  },
  {
    "compound": "Cc1ccc(C#CC2CC2)cc1Nc1cn(CC(=O)N(C)C)nn1 [Compound I-6]",
    "inhibition at 2 µM": "≤ 25%"
  },
  {
    "compound": "Cc1cc(F)c(C#CC2CC2)cc1N(C)C(=O)c1cn(CC2OCC3(CC3)CO2)nn1 [Compound I-100]",
    "inhibition at 2 µM": "> 75%"
  }
]

Print human GPR84 receptor (Homo sapiens) inhibition at 2 µM for O=C(c1cn(CC2OCC3(CC3)CO2)nn1)N(c1cc(C#CC2CC2)ccc1Br)C1CC1 [Compound I-92] .
> 75%

Print human GPR84 receptor (Homo sapiens) inhibition at 2 µM for Cc1ccc(C#CC2CC2)cc1N(C(=O)c1cn(CC2OCC3(CC3)CO2)nn1)C(C)C [Compound I-86] .
> 75%

Print human GPR84 receptor (Homo sapiens) inhibition at 2 µM for Cc1ccc(C#CC2CC2)cc1NCc1cn(CC2OCC3(CC3)CO2)nn1 [Compound I-11] .
≤ 25%

Print human GPR84 receptor (Homo sapiens) inhibition at 2 µM for CN(C(=O)c1cn(CC2OCC3(CC3)CO2)cn1)c1ccc(C#CC2CC2)cc1F [Compound I-59] .
> 75%

Print human GPR84 receptor (Homo sapiens) inhibition at 2 µM for O=C(c1cn(CC2OCC3(CC3)CO2)nn1)N(c1ccc(C#CC2CC2)cc1F)C1CC1 [Compound I-91] .
> 75%

Print human GPR84 receptor (Homo sapiens) inhibition at 2 µM for CN(C(=O)c1cn(CC2OCC3(CC3)CO2)nn1)c1ccc(C#CC2CC2)cc1Cl [Compound I-94] .
> 75%

Print human GPR84 receptor (Homo sapiens) inhibition at 2 µM for Cc1cc(C#CC2CC2)ccc1N(C(=O)c1cn(CC2OCC3(CC3)CO2)nn1)C(C)C [Compound I-84] .
> 75%

Print human GPR84 receptor (Homo sapiens) inhibition at 2 µM for Cc1cc(C#CC2CC2)ccc1N(C(=O)c1cn(CC2OCC3(CC3)CO2)nn1)C1CC1 [Compound I-83] .
> 75%

Print human GPR84 receptor (Homo sapiens) inhibition at 2 µM for O=C(c1cn(CC2OCC3(CC3)CO2)nn1)N(c1ccc(C#CC2CC2)cc1Br)C1CC1 [Compound I-93] .
> 75%
